system: SGK3; conditions: concentration: 1 μM,replicates: in singlicate; n = 1;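 note: KINOMEscan kinase panel screen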
readout_name: %Inh
Please provide the amount together with its unit, number first.

# annotated cases, reported %Inh shown
Cn1ccc2ncnc(Oc3ccc(NC(=O)Nc4cc(C(C)(C)C)on4)c(Cl)c3)c21    0%
O=C(Nc1cccc(Oc2ccc3nccn3n2)c1)Nc1cccc(C(F)(F)F)c1    8%
CCN1CCN(CCCC(=O)Nc2n[nH]c3nc(-c4ccc(O)cc4)c(Br)cc23)CC1 [SB-731579]    0%

Kindly review the next compound as well.
Problem: # lookup: %Inh of CC(C(=O)NC1CCN(c2ccnc(Nc3ccc(F)cc3)n2)C1)c1ccc(Cl)cc1 (stereo not shown) [GSK1379713]
Solution: 0%
